Hey, just so you know, these numbers are from ChEMBL document CHEMBL1201862.

# Tested on: SK-MEL-2
# assay_protocol: NCI tumour cell line growth inhibition, 48 h
Activity calls are given as the source filed them. No stated cut-off is given here; in the data, active = GI50 up to about 1.1 µM and inactive = higher.
Assignment: determine reported GI50 for the given compounds.

Please review the entries below; each comes with its answer.
compound	GI50
CCC(C)COC(=O)c1ccc(/N=C\c2ccc(/C=N/c3ccc(C(=O)OCC(C)CC)cc3)cc2)cc1 (stereo not given)	> 100 µM (inactive)
CSc1n/c(=N\c2ccccc2)sn1-c1ccccc1	17.1 µM (inactive)
C[C@]12CC[C@@H]3c4ccc(O)cc4CC[C@H]3[C@@H]1C/C(=C\c1ccncc1)[C@@H]2O	11.4 µM (inactive)
CCN(CC)CCOc1ccc(N2C(=O)c3cc(OC)c(OC)cc3C2=O)cc1	> 100 µM (inactive)
O=C(/C=C/c1ccccc1)Oc1cccc(Br)c1	> 100 µM (inactive)
O=c1c2c3c(sc2nc(S)n1-c1ccccc1)CCCc1ccc([N+](=O)[O-])cc1-3	> 100 µM (inactive)
COc1ccc2c(c1)c(=O)c1c(NCCCN(C)C)ccc3ncn2c31	14.2 µM (inactive)
CC1(C)NC2C(=O)c3c([nH]c4ccccc34)[C@]3(C)CCC1CC23 (stereo not given in full)	> 100 µM (inactive)

Dear colleague, could you please provide GI50 for the compounds listed below?
1. CCCC[C@H]1[C@@H](OCOc2ccccc2)COC(=O)N1[C@H](C)c1ccccc1
2. O=Cc1cc(O)c(O)c(O)c1-c1c(C=O)cc(O)c(O)c1O

Out:
1: 15.1 µM (inactive); 2: > 100 µM (inactive)

Dear colleague, could you please provide GI50 for the compounds listed below?
1. O=C(NC(=O)c1cc(-c2ccccc2)n[nH]1)c1ccccc1
2. Cc1ccc(S(=O)(=O)n2cc(/C=C/C#N)c(-c3cn(S(=O)(=O)c4ccc(C)cc4)cc3-c3cn(S(=O)(=O)c4ccc(C)cc4)cc3/C=C/C#N)c2)cc1
3. C1=N\CCOCC/N=C/c2ccccc2OCc2cccc(n2)COc2ccccc2/1
4. CCOP(=O)(OCC)C(C)(CC)NC(=O)C(C(F)(F)F)C(F)(F)F (stereo not given)
5. Cn1c2c(c3ccccc31)C1C(=O)N(c3ccccc3)C(=O)C1CC2 (stereo not given)
6. Cc1ccc([N+](=O)[O-])cc1NC(=O)c1cccc([N+](=O)[O-])c1O
7. N#C/C(=C\Nc1ccccn1)C(=O)c1ccco1
8. Nc1nc(N)c2ncn(Cc3c(Cl)cccc3Cl)c2n1

Out:
> 100 µM (inactive)
> 100 µM (inactive)
8.63 µM (inactive)
> 100 µM (inactive)
> 303 µM (inactive)
7.98 µM (inactive)
> 100 µM (inactive)
> 100 µM (inactive)

Dear colleague, could you please provide GI50 for the compounds listed below?
1. CC(=O)OC1C(O)C(C)OC(OC2C(OC(=O)C3CCC4C(C3)OC3(CC(OC(=O)/C=C/c5ccccc5)C(C)CO3)C43CO3)OC(C)C(O)C2OC(C)=O)C1O (stereo not given)
2. C=C1CC[C@@H](C)[C@](C)(CCc2ccoc2)C/C=C\C=C/1C(=O)O

Out:
1: 0.00561 µM (active); 2: 19.1 µM (inactive)
